Assay: Pharmacokinetics and brain distribution after single oral dose, rats
Type: in vivo, male Sprague-Dawley rats
Conditions: male, Sprague-Dawley, rat, plasma, single PO 100 mg/kg

{"compound structure string": "CC(C)N1CCOc2c(F)cc(-c3nc(Nc4ccc(C5CCN(C)CC5)cn4)ncc3F)cc21", "Cmax / ng/mL": 243}

---

Assay: Pharmacokinetics and brain distribution after single oral dose, mice
Assay type: in vivo, male CD1 mice
Settings: male, CD1, mouse, brain; mice, single PO 10 mg/kg, 4 h; read-out: Brain Conc

{"compound structure string": "CC(C)N1CCOc2c(F)cc(-c3nc(Nc4ccc(C5CCN(C)CC5)cn4)ncc3F)cc21", "concentration at 4 h [ng/mL]": 436}

---

Assay: Pharmacokinetics and brain distribution after single oral dose, mice
Assay type: in vivo, male CD1 mice
Conditions: male, CD1, mouse, plasma; mice, single PO 10 mg/kg, 2 h; read-out: Plasma Conc

{"compound structure string": "CC(C)N1CCOc2c(F)cc(-c3nc(Nc4ccc(C5CCN(C)CC5)cn4)ncc3F)cc21", "concentration at 2 h": "187 ng/mL"}

---

Assay: Pharmacokinetics and brain distribution after single oral dose, rats
Type: in vivo, male Sprague-Dawley rats
Conditions: male, Sprague-Dawley, rat, plasma, single PO 30 mg/kg (HCl salt, as free base), 4 h

{"compound structure string": "CC(C)N1CCOc2c(F)cc(-c3nc(Nc4ccc(C5CCN(C)CC5)cn4)ncc3F)cc21", "scale unit": "ng/mL", "concentration at 4 h": 136}

---

Assay: Pharmacokinetics and brain distribution after single oral dose, rats
Format: in vivo, male Sprague-Dawley rats
Settings: male, Sprague-Dawley, rat, plasma, single PO 30 mg/kg (HCl salt, as free base), 12 h
Experimental: The pharmacokinetics and brain distribution in maleCD1 mice and Sprague-Dawley rats following a single oral (PO) dose was evaluated. The compound of formula (I) was administered once at 10 mg/kg to mice and at 1, 10, 30, and 100 mg/kg to rats. All doses, compound of formula (I) concentrations, and derived PK parameters are expressed as the free base of the compound of formula (I). […]
measured metric: concentration at 12 h (ng/mL)

{"compound structure string": "CC(C)N1CCOc2c(F)cc(-c3nc(Nc4ccc(C5CCN(C)CC5)cn4)ncc3F)cc21", "endpoint value": 117}

---

Assay: Pharmacokinetics and brain distribution after single oral dose, rats
Assay type: in vivo, male Sprague-Dawley rats
Details: male, Sprague-Dawley, rat, brain, po, 1 mg/kg, single PO 1 mg/kg, 6 h, read-out: Brain:Plasma Ratio
measured metric: Kp at 6 h

{"compound structure string": "CC(C)N1CCOc2c(F)cc(-c3nc(Nc4ccc(C5CCN(C)CC5)cn4)ncc3F)cc21", "measured metric": "Kp at 6 h", "endpoint value": 6.3}

---

Test: Pharmacokinetics and brain distribution after single oral dose, rats
Format: in vivo, male Sprague-Dawley rats
Conditions: male, Sprague-Dawley, rat, plasma, single PO 100 mg/kg (HCl salt, as free base), 8 h
measured metric: concentration at 8 h (ng/mL)

{"compound structure string": "CC(C)N1CCOc2c(F)cc(-c3nc(Nc4ccc(C5CCN(C)CC5)cn4)ncc3F)cc21", "scale unit": "ng/mL", "endpoint value": 170}

---

Assay: Pharmacokinetics and brain distribution after single oral dose, rats
Type: in vivo, male Sprague-Dawley rats
Conditions: male, Sprague-Dawley, rat, plasma, single PO 10 mg/kg

{"compound": "CC(C)N1CCOc2c(F)cc(-c3nc(Nc4ccc(C5CCN(C)CC5)cn4)ncc3F)cc21 [Compound (I)]", "half-life": "7.54 h"}

The measurements presented in this section are drawn from patent US20230000876A1.
